Molecular target: Polypeptide N-acetylgalactosaminyltransferase 2 (Homo sapiens)
Assay: Inhibition of catalytic activity of human recombinant FLAG-tagged ppGalNAcT2 using Muc2 peptide as substrate incubated for 30 mins by HPLC-based enzyme assay
property: IC50

Consider O=c1oc2c(O)c(O)ccc2c2cc(O)c(O)cc12 . Its measured IC50 is 1140 nM

###

Biological target: Polypeptide N-acetylgalactosaminyltransferase 2 (Homo sapiens, UniProt Q10471)
Sequence (Q10471 whole entry): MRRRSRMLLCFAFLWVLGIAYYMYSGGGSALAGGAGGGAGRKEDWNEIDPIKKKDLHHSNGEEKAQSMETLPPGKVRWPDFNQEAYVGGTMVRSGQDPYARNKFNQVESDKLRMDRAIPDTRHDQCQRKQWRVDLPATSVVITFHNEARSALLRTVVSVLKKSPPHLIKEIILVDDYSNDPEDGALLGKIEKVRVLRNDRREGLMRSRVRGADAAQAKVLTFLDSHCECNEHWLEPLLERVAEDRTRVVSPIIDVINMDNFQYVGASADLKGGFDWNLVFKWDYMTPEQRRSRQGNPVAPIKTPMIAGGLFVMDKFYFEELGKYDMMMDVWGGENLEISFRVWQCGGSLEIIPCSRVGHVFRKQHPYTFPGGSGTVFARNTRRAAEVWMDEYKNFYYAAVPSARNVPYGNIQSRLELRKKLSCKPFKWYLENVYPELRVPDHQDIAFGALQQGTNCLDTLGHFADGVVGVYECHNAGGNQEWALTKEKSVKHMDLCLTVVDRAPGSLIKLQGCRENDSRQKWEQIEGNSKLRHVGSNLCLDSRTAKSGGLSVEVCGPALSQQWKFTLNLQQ
Assay: Non-competitive inhibition of human recombinant FLAG-tagged ppGalNAcT2 expressed in HEK293 cells using UDP-GalNAc as substrate by HPLC-based enzyme assay
property: pKi
// returns pKi (minus log10 of molar concentration), number only

Consider O=c1oc2c(O)c(O)ccc2c2cc(O)c(O)cc12 . Its measured pKi is 5.21

###

Molecular target: Polypeptide N-acetylgalactosaminyltransferase 2 (Homo sapiens)
Experiment: Inhibition of catalytic activity of human recombinant FLAG-tagged ppGalNAcT2 expressed in HEK293T cells and using 5-FAM labelled-EA2 peptide as substrate incubated for 30 mins by HPLC-based enzyme assay
property: pIC50
// returns pIC50 (minus log10 of molar concentration), number only

Consider the reported pIC50 for these compounds:
Consider O=c1oc2c(O)c(O)cc3c(=O)oc4c(O)c(O)cc1c4c23 . Its measured pIC50 is 6.29

Consider O=C(O)c1cc(O)c(O)c(O)c1 . Its measured pIC50 is 5.86

Field: next compound
Consider O=c1oc2c(O)c(O)ccc2c2cc(O)c(O)cc12 . Its measured pIC50 is 6.12

###

Target: Polypeptide N-acetylgalactosaminyltransferase 2 (Homo sapiens)
Assay: Inhibition of catalytic activity of human recombinant FLAG-tagged ppGalNAcT2 using Muc5AC peptide as substrate incubated for 30 mins by HPLC-based enzyme assay
property: IC50

Consider O=c1oc2c(O)c(O)ccc2c2cc(O)c(O)cc12 . Its measured IC50 is 2070 nM

###

Target: Polypeptide N-acetylgalactosaminyltransferase 14 (Homo sapiens, UniProt Q96FL9)
Sequence (Q96FL9 whole entry): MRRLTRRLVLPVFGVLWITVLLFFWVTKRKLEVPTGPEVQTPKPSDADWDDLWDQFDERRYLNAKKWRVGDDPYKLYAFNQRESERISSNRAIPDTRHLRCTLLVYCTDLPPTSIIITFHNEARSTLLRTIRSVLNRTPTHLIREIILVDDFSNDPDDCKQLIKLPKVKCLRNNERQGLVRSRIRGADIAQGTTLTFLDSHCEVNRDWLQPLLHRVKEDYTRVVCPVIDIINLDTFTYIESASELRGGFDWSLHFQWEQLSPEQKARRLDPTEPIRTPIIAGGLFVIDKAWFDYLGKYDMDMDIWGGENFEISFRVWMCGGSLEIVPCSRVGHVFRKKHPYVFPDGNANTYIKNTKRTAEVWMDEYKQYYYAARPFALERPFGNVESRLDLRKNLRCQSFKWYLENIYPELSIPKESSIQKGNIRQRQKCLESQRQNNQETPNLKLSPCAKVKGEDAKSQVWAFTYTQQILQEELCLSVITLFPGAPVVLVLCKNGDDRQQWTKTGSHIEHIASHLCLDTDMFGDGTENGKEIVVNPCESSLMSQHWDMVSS
property: pIC50
// returns pIC50 (minus log10 of molar concentration), number only

Per the reported Polypeptide N-acetylgalactosaminyltransferase 14 (Homo sapiens, UniProt Q96FL9) data, O=c1oc2c(O)c(O)ccc2c2cc(O)c(O)cc12 has pIC50 of 6.34

###

Biological target: Polypeptide N-acetylgalactosaminyltransferase 3 (Homo sapiens)
Sequence (Q14435 whole entry): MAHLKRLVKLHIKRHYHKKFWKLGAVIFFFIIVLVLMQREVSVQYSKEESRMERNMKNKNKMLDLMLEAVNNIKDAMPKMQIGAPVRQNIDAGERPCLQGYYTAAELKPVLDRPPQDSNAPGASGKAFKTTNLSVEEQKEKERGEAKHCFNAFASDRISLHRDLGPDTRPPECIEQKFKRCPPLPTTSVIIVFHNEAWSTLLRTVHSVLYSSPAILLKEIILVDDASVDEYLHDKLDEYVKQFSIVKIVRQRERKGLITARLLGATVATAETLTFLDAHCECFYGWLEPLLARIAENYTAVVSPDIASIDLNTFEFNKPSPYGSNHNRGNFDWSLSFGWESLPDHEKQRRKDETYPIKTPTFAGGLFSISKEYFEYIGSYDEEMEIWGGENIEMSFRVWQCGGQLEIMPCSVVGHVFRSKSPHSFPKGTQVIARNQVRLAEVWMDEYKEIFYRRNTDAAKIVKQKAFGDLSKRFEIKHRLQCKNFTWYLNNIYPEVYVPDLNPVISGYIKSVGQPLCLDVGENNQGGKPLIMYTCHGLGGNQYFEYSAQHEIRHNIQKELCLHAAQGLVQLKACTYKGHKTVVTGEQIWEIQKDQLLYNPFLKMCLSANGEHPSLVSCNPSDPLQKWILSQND
property: IC50 (nM)
Entry rule: numbers only, all in nM.

Consider O=c1oc2c(O)c(O)ccc2c2cc(O)c(O)cc12 . Its measured IC50 is 1610
